# System: c-Met protein (UniProt P08581 25-932, limits assumed)
# Sequence (P08581 25-932 limits assumed): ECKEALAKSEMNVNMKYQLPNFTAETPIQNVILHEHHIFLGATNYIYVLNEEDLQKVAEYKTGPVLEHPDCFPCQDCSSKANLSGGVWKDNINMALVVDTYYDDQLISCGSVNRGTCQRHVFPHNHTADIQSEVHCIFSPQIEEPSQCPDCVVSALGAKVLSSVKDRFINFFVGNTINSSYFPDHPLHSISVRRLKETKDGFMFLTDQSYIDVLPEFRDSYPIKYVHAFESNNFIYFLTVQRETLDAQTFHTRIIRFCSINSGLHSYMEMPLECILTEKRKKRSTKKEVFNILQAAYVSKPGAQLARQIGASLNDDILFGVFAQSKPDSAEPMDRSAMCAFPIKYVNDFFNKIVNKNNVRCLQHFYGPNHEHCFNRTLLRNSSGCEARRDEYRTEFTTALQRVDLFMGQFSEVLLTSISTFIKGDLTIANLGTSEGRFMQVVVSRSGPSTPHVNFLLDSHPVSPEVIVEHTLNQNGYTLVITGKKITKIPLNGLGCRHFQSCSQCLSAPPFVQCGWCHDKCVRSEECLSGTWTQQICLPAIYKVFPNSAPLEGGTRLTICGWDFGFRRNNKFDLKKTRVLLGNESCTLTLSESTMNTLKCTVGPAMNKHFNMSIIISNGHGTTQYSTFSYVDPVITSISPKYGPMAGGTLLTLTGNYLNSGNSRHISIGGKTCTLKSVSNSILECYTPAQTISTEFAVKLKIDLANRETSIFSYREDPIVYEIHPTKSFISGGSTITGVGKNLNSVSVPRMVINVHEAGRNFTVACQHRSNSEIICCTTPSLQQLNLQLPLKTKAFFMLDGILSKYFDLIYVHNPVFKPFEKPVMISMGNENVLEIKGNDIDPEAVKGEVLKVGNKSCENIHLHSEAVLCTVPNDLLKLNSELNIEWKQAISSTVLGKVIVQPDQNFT
# Test Summary: microscale thermophoresis (MST), FITC-peptide with titrated c-Met protein
Where no end group is shown, it is not given here. The star is where a group is joined. FITC = O=C1OC2(c3ccc(O)cc3Oc3cc(O)ccc32)c2ccc(NC(=S)*)cc21; Acp = not defined here
Observation Type: Kd (nM)
Give bare numbers, in nM.

Binder | Kd, nM
{FITC}-DQIIANN (tested as the FITC-labelled form; Molecular weight 1289.36) [FITC-CM7-1 (FITC-DQIIANN)] | 1270

Read the next record carefully.
Data request, read-out Kd, for {FITC-Acp}-RSPYANS (reading uncertain, Synthetic 7-mer made by solid-phase synthesis; Molecular weight 1296.36) [FITC-P1-AI (FITC-RSPYANS)] 41.1
